tested on: LoVo-Dox; assay: Inhibition of cells growth by colorimetric assay (SRB); conditions: Homo sapiens, 48 h, read-out: TGI LOVO-DOX
endpoint_name: IC (TGI)

// recorded IC (TGI) for COc1c(C)cc2c(c1O)[C@H]1N[C@@H](C2)[C@H](C#N)N2C1[C@@H]1SCC(NC(C)=O)C(=O)OC[C@H]2c2c3c(c(C)c(OC(C)=O)c21)OCO3 (some centres unmarked) : 2.07 µM

// recorded IC (TGI) for C=CCN1[C@@H]2c3c(cc(C)c(OC)c3O)C[C@H]1[C@H](C#N)N1C2[C@@H]2SCC(NC(=O)CCCCCCCCCCCCCCC)C(=O)OC[C@H]1c1c3c(c(C)c(OC(C)=O)c12)OCO3 (some centres unmarked) : 11.6 µM

// recorded IC (TGI) for C=CCN1[C@@H]2c3c(cc(C)c(OC)c3OC(=O)/C=C/c3ccccc3)C[C@H]1[C@H](C#N)N1C2[C@@H]2SCC(NC(=O)C(F)(F)F)C(=O)OC[C@H]1c1c3c(c(C)c(OC(C)=O)c12)OCO3 (some centres unmarked) : 11.4 µM

// recorded IC (TGI) for C=CCOc1c(C)c2c(c3c1CC1[C@H]4c5c(cc(C)c(OC)c5O)C[C@@H]([C@H](C#N)N1[C@H]3CO)N4C)OCO2 (some centres unmarked) : 19.2 µM

// recorded IC (TGI) for C=CCN1[C@@H]2c3c(cc(C)c(OC)c3O)C[C@H]1[C@H](C#N)N1C2[C@@H]2SC[C@H](NC(=O)c3cc4ccccc4oc3=O)C(=O)OC[C@H]1c1c3c(c(C)c(OC(C)=O)c12)OCO3 (some centres unmarked) : 1.22 µM

====

system: SK-BR-3; test: Inhibition of cells growth by colorimetric assay (SRB); conditions: Homo sapiens, SK-BR-3, 48 h, read-out: LC50 SK-BR3
endpoint_name: CC50 (µM)
Unit µM implied. Number only.

Known value: SK-BR-3 CC50 of the molecule C=CCOc1c(C)c2c(c3c1CC1[C@H]4c5c(cc(C)c(OC)c5O)C[C@@H]([C@H](C#N)N1[C@H]3CN)N4C)OCO2 (stereo partly drawn) [compound 1] equals 19.2

Known value: SK-BR-3 CC50 of the molecule C=CCOc1c(C)c2c(c3c1CC1[C@H]4c5c(cc(C)c(OC)c5O)C[C@@H]([C@H](C#N)N1[C@H]3CO)N4C)OCO2 (stereo partly drawn) [compound 2] equals 19.2

Known value: SK-BR-3 CC50 of the molecule COc1c(C)cc2c(c1O)[C@@H]1C3[C@@H]4SC[C@]5(NCCc6c5[nH]c5ccccc65)C(=O)OC[C@@H](c5c6c(c(C)c(OC(C)=O)c54)OCO6)N3[C@@H](C#N)[C@H](C2)N1C (stereo partly drawn) [compound 22] equals 0.12

====

tested on: IGROV-1; assay: Inhibition of cells growth by colorimetric assay (SRB); settings: read-out: LC50 IGROV; IGROV; SRB, 48 hours exposure
endpoint_name: CC50 (nM)
Unit nM implied. Number only.

// recorded CC50 for C=CCN1C2Cc3cc(C)c(OC)c(O)c3C1C1C3SCC(NC(C)=O)C(=O)OCC(c4c5c(c(C)c(OC(C)=O)c43)OCO5)N1C2C#N (centres unmarked) : 110

// recorded CC50 for C=CCN1C2Cc3cc(C)c(OC)c(O)c3C1C1C3SCC(NC(=O)CC)C(=O)OCC(c4c5c(c(C)c(OC(C)=O)c43)OCO5)N1C2C#N (centres unmarked) : 1020
